Test system: NCI/ADR-RES ovarian
Experiment: NCI-60 one-dose screen, 48 h (100 = growth as untreated, 0 = no growth, -100 = all killed)
Conditions: 10 µM unless noted
Method: Growth inhibition of the NCI/ADR-RES human […] tumor cell line is measured as a screen for anti-cancer activity. Cells are grown in 96 well plates and exposed to the test compound for 48 hours. Compounds are tested at a single concentration, which is 10^-5 M for most compounds. The reported endpoint is percent growth (GI% or GIPRCNT), where numbers from 0 - 100% represent growth inhibition, and numbers from -100% - 0 represent cell death. For example, a value of 40 represents 60% growth inhibition. […]
Compounds without any hit were thinned out: in the full panel of roughly 83,000, 20% have a hit.
Each entry below carries its recorded growth.

{"MOL SMILES": "COc1ccc(C(=O)Cn2c(C(=O)c3ccccc3)nc3ccccc32)cc1", "growth [%]": -28.3}
{"MOL SMILES": "CC(=O)[C@@H]1CC[C@]2(CO)CC[C@]3(C)[C@H](CC[C@@H]4[C@@]5(C)CCCNC(C)(C)[C@@H]5CC[C@]43C)[C@@H]12", "growth [%]": 96.4}
{"MOL SMILES": "O=C(Cn1c[n+](CC(=O)c2ccc(-c3ccccc3)cc2)c2ccccc21)Nc1cccc2cccnc12", "growth [%]": 96.7}
{"MOL SMILES": "O=C(c1nnc(Nc2ccccc2Br)o1)c1c[nH]c2ccccc12", "growth [%]": 102}
{"MOL SMILES": "CC(=O)CCC(=O)OCc1cc(=O)c(O)co1", "growth [%]": 98.3}

====

system: T-47D breast; test: NCI-60 one-dose screen, 48 h (100 = growth as untreated, 0 = no growth, -100 = all killed); conditions: 10 µM unless noted
Compounds without any hit were thinned out: in the full panel of roughly 83,000, 20% have a hit.
Form field: growth (one value per entry).
ENDPOINT LABEL: growth (%)

{"COMPOUND": "c1ccc2c(-c3nccs3)c[nH]c2c1", "STUDY TARGET": "T-47D breast", "ENDPOINT LABEL": "growth", "VAL": 96.3}
{"COMPOUND": "N#Cc1c(-c2ccccc2)nc2c(c(-c3ccccc3)nn2-c2ccccc2)c1-c1ccc(O)cc1", "STUDY TARGET": "T-47D breast", "ENDPOINT LABEL": "growth", "VAL": 35.3}
{"COMPOUND": "Cc1cccc(C)c1N=c1oc2ccc(Cl)cc2nc1-c1ccccc1O", "STUDY TARGET": "T-47D breast", "ENDPOINT LABEL": "growth", "VAL": 37.8}
{"COMPOUND": "COc1ccc(CCn2cncc2-c2c[nH]c3ccccc23)cc1", "STUDY TARGET": "T-47D breast", "ENDPOINT LABEL": "growth", "VAL": 80.2}
{"COMPOUND": "O=C1Nc2cc(-c3ccc(NC(=O)c4ccccc4)cc3)ccc2/C1=C/c1ccc[nH]1", "STUDY TARGET": "T-47D breast", "ENDPOINT LABEL": "growth", "VAL": 35.7}
{"COMPOUND": "O=C(C1CCC1)N1N=C(c2ccc(-n3ccc(C(F)(F)F)n3)cc2)CC1c1ccc[nH]1 (stereo unspecified)", "STUDY TARGET": "T-47D breast", "ENDPOINT LABEL": "growth", "VAL": 78}
{"COMPOUND": "N#CC(C#N)=Cc1cc2ccccc2nc1Oc1ccc(C(F)(F)F)cc1", "STUDY TARGET": "T-47D breast", "ENDPOINT LABEL": "growth", "VAL": 90.6}
{"COMPOUND": "CN[C@@H](C)C(=O)N[C@H]1CCS[C@H]2CC(C)(C)[C@@H](C(=O)N[C@H]3c4ccccc4C[C@H]3OCC#CC#CCO[C@@H]3Cc4ccccc4[C@@H]3NC(=O)[C@H]3N4C(=O)[C@@H](NC(=O)[C@H](C)NC)CCS[C@H]4CC3(C)C)N2C1=O", "STUDY TARGET": "T-47D breast", "ENDPOINT LABEL": "growth", "VAL": 86.1}
{"COMPOUND": "O=C(/C(=C/c1ccc([N+](=O)[O-])cc1)SCc1ccc(F)cc1)c1ccc(F)cc1", "STUDY TARGET": "T-47D breast", "ENDPOINT LABEL": "growth", "VAL": 79.8}
{"COMPOUND": "CCOC(=O)c1cc(C(=O)c2ccc(Br)cc2)n2ccc(/C=C/c3cc[n+](CC(=O)c4ccc(OC)cc4)cc3)cc12", "STUDY TARGET": "T-47D breast", "ENDPOINT LABEL": "growth", "VAL": 90.1}
{"COMPOUND": "C=C(C)[C@@H]1CC[C@]2(C(=O)N3CCN(C)CC3)CC[C@]3(C)[C@H](CC[C@@H]4[C@@]5(C)C/C(=C/c6ccncc6)C(=O)C(C)(C)[C@@H]5CC[C@]43C)[C@@H]12", "STUDY TARGET": "T-47D breast", "ENDPOINT LABEL": "growth", "VAL": 48.3}
{"COMPOUND": "CCOC(=O)CCN(CC(C)C)C(=S)Nc1ccccc1", "STUDY TARGET": "T-47D breast", "ENDPOINT LABEL": "growth", "VAL": 105}
{"COMPOUND": "Nc1c(C(=O)Nc2ccnc3ccccc23)sc2nc3c(cc12)CN(Cc1ccccc1)CC3", "STUDY TARGET": "T-47D breast", "ENDPOINT LABEL": "growth", "VAL": 38.5}
{"COMPOUND": "Cc1cc2nc3c4cc(C=O)ccc4n(CCN(C)C)c3nc2cc1C", "STUDY TARGET": "T-47D breast", "ENDPOINT LABEL": "growth", "VAL": 22.3}
{"COMPOUND": "Nc1c(S(=O)(=O)O)cc2c3c(cccc13)C(=O)OC2=O", "STUDY TARGET": "T-47D breast", "ENDPOINT LABEL": "growth", "VAL": 96}
{"COMPOUND": "O=C1c2ccccc2CCC12OC2c1cn(-c2ccccc2)nc1-c1ccc(Cl)cc1 (stereo unspecified)", "STUDY TARGET": "T-47D breast", "ENDPOINT LABEL": "growth", "VAL": 93.1}
{"COMPOUND": "Cc1ccc(-c2csc(NC(=O)CSc3nc(-c4ccccc4)cc(=O)[nH]3)n2)cc1", "STUDY TARGET": "T-47D breast", "ENDPOINT LABEL": "growth", "VAL": 78.1}
{"COMPOUND": "COc1ccc(C(=O)NNc2nc(Cl)nc(N3CCN(C(c4ccccc4)c4ccccc4)CC3)n2)cc1", "STUDY TARGET": "T-47D breast", "ENDPOINT LABEL": "growth", "VAL": 85.5}
{"COMPOUND": "COCCCN1CC(O)=C(c2nc(-c3ccc(C)cc3)cs2)C1=N", "STUDY TARGET": "T-47D breast", "ENDPOINT LABEL": "growth", "VAL": 97.5}
{"COMPOUND": "O=C1/C=C/[C@@H](O)[C@@H]2C[C@@H](O)C[C@H]2/C=C/CCC[C@H](CCc2ccc3ncccc3c2)O1", "STUDY TARGET": "T-47D breast", "ENDPOINT LABEL": "growth", "VAL": 0.682}
{"COMPOUND": "Cc1cnc(C(=O)Nc2nc3ccc(S(=O)(=O)Nc4ccc(C5(C(F)(F)F)CC5)cc4)cc3[nH]2)cn1", "STUDY TARGET": "T-47D breast", "ENDPOINT LABEL": "growth", "VAL": 21.6}
{"COMPOUND": "O=C(CNCCN1CCOCC1)N1c2cccc3cccc(c23)N(C(=O)CNCCN2CCOCC2)C1c1cn(-c2ccccc2)nc1-c1cccc([N+](=O)[O-])c1", "STUDY TARGET": "T-47D breast", "ENDPOINT LABEL": "growth", "VAL": 77.6}
{"COMPOUND": "Cc1cc2c(c(C)c1Cl)C(=O)/C(=C/c1ccc(O)c(O)c1)O2", "STUDY TARGET": "T-47D breast", "ENDPOINT LABEL": "growth", "VAL": 90.5}
{"COMPOUND": "O=S(=O)(NCCNc1nccc(-c2c(-c3cccc(F)c3)nc3sccn23)n1)c1ccccc1", "STUDY TARGET": "T-47D breast", "ENDPOINT LABEL": "growth", "VAL": 18.8}
{"COMPOUND": "COc1cc(OC)cc(C(=O)C[n+]2cccc3cc[nH]c32)c1", "STUDY TARGET": "T-47D breast", "ENDPOINT LABEL": "growth", "VAL": 100}
{"COMPOUND": "O=C1c2cccc3c(-c4ccc5c(c4)ncn5C4CCCCC4)ccc(c23)C(=O)N1c1nc2ccccc2s1", "STUDY TARGET": "T-47D breast", "ENDPOINT LABEL": "growth", "VAL": 72.6}
{"COMPOUND": "N#CC1=C(N)Oc2c(ccc3ccccc23)C1c1ccccc1Cl (stereo unspecified)", "STUDY TARGET": "T-47D breast", "ENDPOINT LABEL": "growth", "VAL": 66.5}
{"COMPOUND": "O=C1OC(Cc2ccccc2)C1c1ccccc1 (stereo unspecified)", "STUDY TARGET": "T-47D breast", "ENDPOINT LABEL": "growth", "VAL": 93.7}
{"COMPOUND": "C#CCNC(=O)[C@]1(C)CC[C@]2(C)CC[C@@H]3C(=CC[C@H]4[C@@]3(C)CC[C@H]3C(C)(C)C(=O)CC[C@]43C)[C@@H]2C1", "STUDY TARGET": "T-47D breast", "ENDPOINT LABEL": "growth", "VAL": 77.1}
{"COMPOUND": "O=C(Cn1c[n+](CC(=O)c2ccc([N+](=O)[O-])cc2)c2ccccc21)Nc1cccc2cccnc12", "STUDY TARGET": "T-47D breast", "ENDPOINT LABEL": "growth", "VAL": 33.9}
{"COMPOUND": "N#CC1C(C#N)C(C(=O)c2ccc(Br)cc2)N2c3ccccc3C=CC12 (stereo unspecified)", "STUDY TARGET": "T-47D breast", "ENDPOINT LABEL": "growth", "VAL": 49.3}
{"COMPOUND": "COC(=O)c1ccc2c(c1)[n+](=O)c(C(C)=O)c(C(F)(F)F)n2[O-]", "STUDY TARGET": "T-47D breast", "ENDPOINT LABEL": "growth", "VAL": -73.6}
{"COMPOUND": "O=C(Cc1ccccc1)NNc1nc(Cl)nc(N2CCN(C(c3ccccc3)c3ccccc3)CC2)n1", "STUDY TARGET": "T-47D breast", "ENDPOINT LABEL": "growth", "VAL": 84.4}
{"COMPOUND": "O=C(O)c1ccc2c(c1)C(=O)N(Cc1ccccc1)C2=O", "STUDY TARGET": "T-47D breast", "ENDPOINT LABEL": "growth", "VAL": 95.8}
{"COMPOUND": "COc1ccc2[nH]c(O)c(/C=c3/cc4c(c(-c5ccc(F)cc5)n3)=Nc3ccccc3-4)c2c1", "STUDY TARGET": "T-47D breast", "ENDPOINT LABEL": "growth", "VAL": 73.6}
{"COMPOUND": "O=C1Nc2ccc(F)cc2/C1=C\\c1c(-c2ccccc2)nc2ccccn12", "STUDY TARGET": "T-47D breast", "ENDPOINT LABEL": "growth", "VAL": 61.8}
